# System: SETVI (Foxtail, Green)
# assayName: Postemergence herbicidal evaluation
# Type: in vivo, Setaria viridis
# settings: postemergence, rate 0.0313 kg/ha
attributeMeasured: SETVI herbicidal rating
// no unit string in output, number only

Which SETVI herbicidal rating is reported for this compound? CCOC(=O)CN1C(=O)C(CC(=O)NO)S/C1=N/c1cc(-n2c(=O)cc(C(F)(F)F)n(C)c2=O)c(F)cc1Cl (stereo not shown)
0.0

Which SETVI herbicidal rating is reported for this compound? C=CCN1C(=O)C(CC(=O)OCCF)SC1=Nc1cc(-n2c(=O)cc(C(F)(F)F)n(C)c2=O)c(F)cc1Cl (stereo not shown)
9.0

Which SETVI herbicidal rating is reported for this compound? CN1C(=O)CS/C1=N/c1cc(-n2c(=O)cc(C(F)(F)F)n(C)c2=O)c(F)cc1Cl
4.0

Which SETVI herbicidal rating is reported for this compound? CCOC(=O)CN1C(=O)C2(CC2)SC1=Nc1cc(-n2c(=O)cc(C(F)(F)F)n(C)c2=O)c(F)cc1Cl
0.0

* * *

Consider the following molecules; for each one, report its ABUTH preemergence herbicidal rating.
# System: ABUTH (Velvetleaf)
# assayName: Preemergence herbicidal evaluation
# Type: in vivo, Abutilon theophrasti
# settings: rate 0.2500 kg/ha; rated 4-5 weeks after treatment
# Text: Results of herbicide evaluation are expressed on a rating scale (0-9). The scale is based upon a visual observation of plant stand, vigor, malformation, size, chlorosis and overall plant appearance as compared with a control. […] The compounds evaluated are reported by compound number given in Example 37.
// no unit string in output, number only

Which ABUTH preemergence herbicidal rating is reported for this molecule? CCC1SC(=Nc2cc(N3C(=O)C4=C(CCCC4)C3=O)c(F)cc2Cl)N(C)C1=O (stereo not drawn)
0.0

Which ABUTH preemergence herbicidal rating is reported for this molecule? CN(C)N1C(=O)CSC1=Nc1cc(-n2c(=O)cc(C(F)(F)F)n(C)c2=O)c(F)cc1Cl
9.0

Which ABUTH preemergence herbicidal rating is reported for this molecule? CCOC(=O)CN1C(=O)C(Cc2ccccc2)SC1=Nc1cc(-n2c(=O)cc(C(F)(F)F)n(C)c2=O)c(F)cc1Cl (stereo not drawn)
9.0

Which ABUTH preemergence herbicidal rating is reported for this molecule? CCOC(=O)CN1C(=O)CO/C1=N/c1cc(-n2c(=O)cc(C(F)(F)F)n(C)c2=O)c(F)cc1Cl
9.0

Which ABUTH preemergence herbicidal rating is reported for this molecule? CCOC(=O)CN1C(=O)C2(CC2)SC1=Nc1cc(-n2c(=O)cc(C(F)(F)F)n(C)c2=O)c(F)cc1Cl
9.0

Which ABUTH preemergence herbicidal rating is reported for this molecule? CN1C(=O)CS/C1=N/c1cc(-n2c(=O)cc(C(F)(F)F)n(C)c2=O)c(F)cc1Cl
9.0

* * *

# System: GALAP (Galium)
# assayName: Postemergence herbicidal evaluation
# Type: in vivo, Galium aparine
# settings: postemergence, rate 0.0156 kg/ha
attributeMeasured: Herbicidal rating GALAP
// no unit string in output, number only

Which Herbicidal rating GALAP is reported for this compound? Cn1c(C(F)(F)F)cc(=O)n(-c2cc(N=C3SCC(=O)N3Cc3cccnc3)c(Cl)cc2F)c1=O
2.0

Which Herbicidal rating GALAP is reported for this compound? C=C1SC(=Nc2cc(-n3c(=O)cc(C(F)(F)F)n(C)c3=O)c(F)cc2Cl)N(CC(=O)OCC)C1=O
3.0

Which Herbicidal rating GALAP is reported for this compound? Cn1c(C(F)(F)F)cc(=O)n(-c2cc(N=C3SCC(=O)N3CC(=O)OC3CCCC3)c(Cl)cc2F)c1=O
2.0

Which Herbicidal rating GALAP is reported for this compound? Cc1cc(C)cc(CN2C(=O)CSC2=Nc2cc(-n3c(=O)cc(C(F)(F)F)n(C)c3=O)c(F)cc2Cl)c1
2.0

Which Herbicidal rating GALAP is reported for this compound? CCOC(=O)CN1C(=O)C(Br)SC1=Nc1cc(-n2c(=O)cc(C(F)(F)F)n(C)c2=O)c(F)cc1Cl (stereo not shown)
0.0

Which Herbicidal rating GALAP is reported for this compound? CCOC(=O)CN1C(=O)C(C(=O)OC(C)(C)C)SC1=Nc1cc(-n2c(=O)cc(C(F)(F)F)n(C)c2=O)c(F)cc1Cl (stereo not shown)
2.0

Which Herbicidal rating GALAP is reported for this compound? CCN1C(=O)CSC1=Nc1cc(-n2c(=O)cc(C(F)(F)F)n(C)c2=O)c(F)cc1Cl
0.0

* * *

# System: ORYSAT (Rice, Tebonnet)
# assayName: Preemergence herbicidal evaluation
# Assay type: in vivo, Oryza sativa, (L.) Tebonnet
# settings: preemergence, 0.0313 kg/ha, rated 4-5 weeks after treatment, 0-9 scale
Consider the following molecules; for each one, report its ORYSAT rating.
// no unit string in output, number only

Which ORYSAT rating is reported for this molecule? CCOC(=O)CN1C(=O)C(CC(=O)NOC)SC1=Nc1cc(-n2c(=O)cc(C(F)(F)F)n(C)c2=O)c(F)cc1Cl (stereo not shown)
0.0

Which ORYSAT rating is reported for this molecule? C#CCOC(=O)CC1SC(=Nc2cc(-n3c(=O)cc(C(F)(F)F)n(C)c3=O)c(F)cc2Cl)N(C)C1=O (stereo not shown)
0.0

Which ORYSAT rating is reported for this molecule? C=CCN1C(=O)C(CC(=O)NS(C)(=O)=O)SC1=Nc1cc(-n2c(=O)cc(C(F)(F)F)n(C)c2=O)c(F)cc1Cl (stereo not shown)
0.0

Which ORYSAT rating is reported for this molecule? CC(C)OC(=O)CC1SC(=Nc2cc(-n3c(=O)cc(C(F)(F)F)n(C)c3=O)c(F)cc2Cl)N(C)C1=O (stereo not shown)
0.5

* * *

# Tested on: GLXMAW (Soybean, Williams)
# assayName: Preemergence herbicidal evaluation
# Type: in vivo, Glycine max, (L.) Merr. cv Williams
# settings: rate 0.2500 kg/ha; rated 4-5 weeks after treatment; rating scale 0-9
Consider the following compounds; for each one, report its Preemergence herbicidal rating GLXMAW.
// no unit string in output, number only

Which Preemergence herbicidal rating GLXMAW is reported for this compound? Cn1c(C(F)(F)F)cc(=O)n(-c2cc(N=C3SCC(=O)N3Cc3ccc(C(F)(F)F)cc3)c(Cl)cc2F)c1=O [Compound 141]
3.0

Which Preemergence herbicidal rating GLXMAW is reported for this compound? COc1cc(CN2C(=O)CSC2=Nc2cc(-n3c(=O)cc(C(F)(F)F)n(C)c3=O)c(F)cc2Cl)cc(OC)c1OC [Compound 140]
0.0

Which Preemergence herbicidal rating GLXMAW is reported for this compound? Cn1c(C(F)(F)F)cc(=O)n(-c2cc(N=C3SCC(=O)N3Cc3ccncc3)c(Cl)cc2F)c1=O [Compound 133]
0.0

Which Preemergence herbicidal rating GLXMAW is reported for this compound? Cn1c(C(F)(F)F)cc(=O)n(-c2cc(N=C3SCC(=O)N3Cc3ccc(F)cc3)c(Cl)cc2F)c1=O [Compound 151]
7.0

* * *

# Tested on: GALAP (Galium)
# assayName: Postemergence herbicidal evaluation
# Assay type: in vivo, Galium aparine
# settings: Rate 0.0630 kg/ha
Consider the following molecules; for each one, report its Postemergence herbicidal rating GALAP.
// no unit string in output, number only

Query the reported Postemergence herbicidal rating GALAP for GALAP (Galium); item: C[C@@H](C(=O)O)N1C(=O)CS/C1=N/c1cc(-n2c(=O)cc(C(F)(F)F)n(C)c2=O)c(F)cc1Cl
9.0

Query the reported Postemergence herbicidal rating GALAP for GALAP (Galium); item: Cn1c(C(F)(F)F)cc(=O)n(-c2cc(/N=C3/SC(CC(=O)O)C(=O)N3CC(=O)O)c(Cl)cc2F)c1=O (centres unmarked)
0.0

Query the reported Postemergence herbicidal rating GALAP for GALAP (Galium); item: C=CCN1C(=O)C(CC(=O)OC)SC1=Nc1cc(-n2c(=O)cc(C(F)(F)F)n(C)c2=O)c(F)cc1Cl (centres unmarked)
7.0

Query the reported Postemergence herbicidal rating GALAP for GALAP (Galium); item: CCOC(=O)CN1C(=O)C(Cc2ccccc2OC)SC1=Nc1cc(-n2c(=O)cc(C(F)(F)F)n(C)c2=O)c(F)cc1Cl (centres unmarked)
4.0

Query the reported Postemergence herbicidal rating GALAP for GALAP (Galium); item: COC(=O)CCCN1C(=O)CSC1=Nc1cc(-n2c(=O)cc(C(F)(F)F)n(C)c2=O)c(F)cc1Cl
7.0

* * *

Consider the following compounds; for each one, report its Herbicidal rating MOOVA.
# Tested on: MOOVA (Monochoria)
# assayName: Postemergence weed control under flooded paddy conditions
# Type: in vivo, Monochoria vaginalis
# settings: rate 0.0313 kg/ha, postemergence weeds, 3-4 weeks after treatment
// no unit string in output, number only

Which Herbicidal rating MOOVA is reported for this compound? CCOC(=O)CN1C(=O)CS(=O)(=O)C1=Nc1cc(-n2c(=O)cc(C(F)(F)F)n(C)c2=O)c(F)cc1Cl
3.0

Which Herbicidal rating MOOVA is reported for this compound? Cn1c(C(F)(F)F)cc(=O)n(-c2cc(N=C3SCC(=O)N3Cc3ccccc3)c(Cl)cc2F)c1=O
9.0

Which Herbicidal rating MOOVA is reported for this compound? CCOC(=O)CN1C(=O)C(Cc2ccccc2)SC1=Nc1cc(-n2c(=O)cc(C(F)(F)F)n(C)c2=O)c(F)cc1Cl (stereo not drawn)
0.0

Which Herbicidal rating MOOVA is reported for this compound? CCC1SC(=Nc2cc(N3C(=O)C4=C(CCCC4)C3=O)c(F)cc2Cl)N(C)C1=O (stereo not drawn)
1.0

Which Herbicidal rating MOOVA is reported for this compound? CCOC(=O)CN1C(=O)CSC1=Nc1cc(-n2c(=O)cc(C(F)(F)F)n(C)c2=O)c(F)cc1Cl
9.0

Which Herbicidal rating MOOVA is reported for this compound? C=CCN1C(=O)CSC1=Nc1cc(N2C(=O)C3=C(CCCC3)C2=O)c(F)cc1Cl
2.0
